Data provenance: patent US20250026743A1

Listed here are compounds together with their documented pIC50.
biological target: hmGlu5 (Homo sapiens, UniProt P41594); construct: expressed in transfected cells; host or cells: HEK 293A; test: mGlu5 Ca2+ flux assay in HEK 293A cells (negative allosteric modulation of glutamate EC80 response); format: cell-based; conditions: HEK 293A cells, Ca2+ flux, glutamate EC80; >10,000 = decrease without plateau; read-out: hmGlu5 NAM IC50
Sequence (P41594 21-1212): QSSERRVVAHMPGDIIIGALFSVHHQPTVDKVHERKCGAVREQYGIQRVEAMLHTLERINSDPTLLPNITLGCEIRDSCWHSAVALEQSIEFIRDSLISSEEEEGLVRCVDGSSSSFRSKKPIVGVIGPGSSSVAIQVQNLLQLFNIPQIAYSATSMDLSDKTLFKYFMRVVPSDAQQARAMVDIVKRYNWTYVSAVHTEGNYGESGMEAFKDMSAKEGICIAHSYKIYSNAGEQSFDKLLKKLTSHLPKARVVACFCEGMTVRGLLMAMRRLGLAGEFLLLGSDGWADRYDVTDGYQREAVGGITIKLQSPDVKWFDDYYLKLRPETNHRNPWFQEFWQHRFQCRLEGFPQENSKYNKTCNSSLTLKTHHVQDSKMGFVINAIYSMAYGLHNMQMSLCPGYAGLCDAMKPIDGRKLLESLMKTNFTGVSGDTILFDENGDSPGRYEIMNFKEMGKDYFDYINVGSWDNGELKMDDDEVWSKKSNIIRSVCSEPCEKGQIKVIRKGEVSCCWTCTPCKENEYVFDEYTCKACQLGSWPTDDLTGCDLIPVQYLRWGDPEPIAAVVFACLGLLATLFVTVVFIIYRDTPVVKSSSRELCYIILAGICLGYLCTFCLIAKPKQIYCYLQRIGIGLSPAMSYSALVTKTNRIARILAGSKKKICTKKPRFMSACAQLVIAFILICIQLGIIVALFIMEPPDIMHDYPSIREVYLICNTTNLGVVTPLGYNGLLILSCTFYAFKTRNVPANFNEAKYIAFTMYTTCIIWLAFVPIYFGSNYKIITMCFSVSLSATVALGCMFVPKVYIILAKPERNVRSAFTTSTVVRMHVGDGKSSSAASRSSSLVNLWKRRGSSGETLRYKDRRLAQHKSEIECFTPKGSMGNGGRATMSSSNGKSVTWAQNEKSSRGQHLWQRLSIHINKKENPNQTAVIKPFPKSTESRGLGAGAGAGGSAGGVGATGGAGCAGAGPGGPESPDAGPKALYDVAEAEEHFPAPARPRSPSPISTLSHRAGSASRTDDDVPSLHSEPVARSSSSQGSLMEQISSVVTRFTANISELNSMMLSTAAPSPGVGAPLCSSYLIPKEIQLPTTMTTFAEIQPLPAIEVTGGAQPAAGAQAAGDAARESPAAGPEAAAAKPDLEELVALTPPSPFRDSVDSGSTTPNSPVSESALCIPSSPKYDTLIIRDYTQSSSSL
pIC50: −log10 of the molar value.
assay-endpoint: pIC50

Cc1nc(-c2noc(-c3ccncc3)n2)cc(-c2cncc(F)c2)c1F: 5.97
Cc1cc(-c2cncc(F)c2)cc(-c2noc(-c3nc(C)cs3)n2)n1: 6.04
Cc1ccncc1-c1cc(-c2nnc(-c3ccc(F)cn3)o2)nc(C)c1F: 6.43
Cc1nc(-c2noc(-c3ccc(F)cn3)n2)cc(-c2cncc(F)c2)c1F: 7.23
Cc1ccncc1-c1cc(-c2noc(-c3ccc(Cl)cn3)n2)nc(C)c1F: 6.24
Cc1csc(-c2nnc(-c3cc(-c4cncc(F)c4)c(F)c(C)n3)o2)n1: 6.22
Cc1nc(-c2n[nH]c(-c3ccc(F)cn3)n2)cc(-c2cncc(F)c2)c1F: 7.19
Cc1cc(-c2cncc(F)c2)cc(-c2noc(-c3ccc(F)cn3)n2)n1: 6.72
Cc1ccncc1-c1cc(-c2nc(-c3ccc(F)cn3)no2)ncc1F: 6.78
Cc1nc(-c2noc(-c3ccc(F)cn3)n2)cc(-c2ccc(Cl)nc2)c1F: 6.24

----------
target: hmGlu5 (Homo sapiens, UniProt P41594); construct: expressed in transfected cells; host or cells: HEK 293A; assay: mGlu5 Ca2+ flux assay in HEK 293A cells (negative allosteric modulation of glutamate EC80 response); type: cell-based; details: HEK 293A cells, Ca2+ flux, glutamate EC80; >10,000 = decrease without plateau; read-out: hmGlu5 NAM IC50
pIC50: −log10 of the molar value.
Here the recorded pIC50 is given for each entry.
assay-endpoint: pIC50

Cc1cc(O[C@@H]2CCOC2)cc(-c2noc(-c3ccc(F)cn3)n2)n1: < 5.00
CCn1cc(-c2cc(-c3noc(-c4nc(C)cs4)n3)nc(C)c2F)cn1: < 5.00
Cc1ccncc1-c1cc(-c2noc(Cc3ccnn3C)n2)nc(C)c1F: < 5.00

----------
biological target: hmGlu5 (Homo sapiens); construct: expressed in transfected cells; host or cells: HEK 293A; experiment: mGlu5 Ca2+ flux assay in HEK 293A cells (negative allosteric modulation of glutamate EC80 response); assay type: cell-based; settings: HEK293-A; % Glu max at 30 μM; read-out: hmGlu5 NAM Emin (%)
Note: every record was labeled by where its remaining activity at 30 µM sits among low: < 2%; mid: ≥ 2% and < 6%; high: ≥ 6%

[2H]C([2H])([2H])c1cc(-c2cncc(F)c2)cc(-c2nnc(-c3ccc(F)cn3)o2)n1 [Compound 85]: low
Cc1ccn(Cc2nc(-c3cc(-c4cnccc4C)c(F)c(C)n3)no2)n1 [Compound 65]: high
Cc1nc(-c2noc(-c3cccc(F)c3)n2)cc(-c2cncc(F)c2)c1F [Compound 38]: high
Cc1ccncc1-c1cc(-c2nc(-c3ccc(F)cn3)no2)ncc1F [Compound 4]: low
Cc1ccncc1-c1cc(-c2noc(-c3cnccn3)n2)nc(C)c1F [Compound 94]: high
Cc1nc(-c2noc(-c3ccc(F)cn3)n2)cc(-c2cnccc2Cl)c1F [Compound 69]: mid
Cc1nc(-c2noc(-c3ccc(F)cn3)n2)cc(-c2ccc(C3CC3)nc2)c1F [Compound 31]: high
Cc1cc(CC2CCOCC2)cc(-c2noc(-c3ccc(F)cn3)n2)n1 [Compound 71]: high
Cc1nc(-c2noc(-c3ccc(F)cn3)n2)cc(-c2cc(F)cc(F)c2)c1F [Compound 67]: mid
COc1cc(-c2cc(-c3nnc(-c4ccc(F)cn4)o3)nc(C)c2F)ccn1 [Compound 108]: low
